red/green cell ratio (normalised) listing for selected compounds.
assayOverview: differential killing of epithelial or mesenchymal cells, primary screen, imaging, PC-3E GFP, TEM4-18 mCherry, co-culture (AID 1345086);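 also: normalised mesenchymal count divided by normalised epithelial count so high means epithelial killing; cells exposed to compound for 72 h before imaging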
studyConditions: imaging cell counts, at 1 µM, actives lie on both sides, counts scaled to control wells, 1 = unselective
Activity calls are given as the source filed them.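 The calls were made as follows: active = compounds killing one labelled cell type while sparing the other, by normalised counts and ratio limits, not self-fluorescent; inactive = the rest.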

compound | red/green cell ratio (normalised)
CC(=O)O[C@@H]1CC2C(C)(C)[C@H](O)C[C@H](O)[C@]2(C)C2CC[C@@]3(C)[C@H](c4ccoc4)OC(=O)[C@H]4O[C@]43[C@@]21C (stereo partly specified) | 1.01 (inactive)
O=C(O)c1ccccc1Nc1ccccc1 | 0.96 (inactive)
CCC[C@H]1Cc2cc3c(-c4c(O)cc(O)c5c(O)c6c(cc45)C[C@H](CCC)OC6=O)c(O)cc(O)c3c(O)c2C(=O)O1 | 0.9 (inactive)
CC1CCCC(O)/C=C/C(O)C(=O)c2c(O)cc(O)cc2CC(=O)O1 (stereo unspecified) | 1.11 (inactive)
CNC[C@@H](O)c1ccc(O)c(O)c1 | 1.49 (inactive)
COc1c(N2CC[C@@H](CN)C2)c(F)cc2c(=O)c(C(=O)NO)cn(C3CC3)c12 | 1.1 (inactive)
CC(=O)N[C@@H]1[C@@H](C(O)[C@H](O)CO)O[C@](O)(C(=O)O)C[C@@H]1O (stereo partly specified) | 0.94 (inactive)
N[C@@H](CC(=O)N1CCn2c(nnc2C(F)(F)F)C1)Cc1cc(F)c(F)cc1F | 1.25 (inactive)
CO[C@@H]1[C@@H](O[C@@H]2O[C@H](C)[C@@H](O[C@H]3C[C@@](C)(O)[C@H](O)[C@H](C)O3)[C@H](N(C)C)[C@H]2O)[C@@H](CC=O)C[C@@H](C)[C@@H](O[C@H]2CC[C@H](N(C)C)[C@@H](C)O2)/C=C/C=C/C[C@H](C)OC(=O)C[C@H]1O | 0.86 (inactive)
CC[C@@H]1OC(=O)c2c(OC)cc(=O)oc21 | 1.1 (inactive)
Nc1ccc(C(=O)O)c(O)c1 (tested in a mixture with another compound) | 0.93 (inactive)
Nc1nc(F)nc2c1ncn2[C@@H]1O[C@H](COP(=O)(O)O)[C@@H](O)[C@@H]1O | 1.06 (inactive)
CC(C)Oc1ccc2c(=O)cc(-c3ccccc3)oc2c1 | 0.86 (inactive)
COC(=O)C1O[C@H](OCc2ccc(OC)cc2)[C@@H](OC(=O)c2ccccc2)[C@@H](OC(=O)c2ccccc2)C1O (stereo partly specified) | 0.84 (inactive)
CNCC[C@H](Oc1cccc2ccccc12)c1cccs1 | 0.93 (inactive)
Cc1cn(CC(=O)O)c(=O)[nH]c1=O | 0.86 (inactive)
COC(=O)C(N)CS (stereo unspecified) | 0.97 (inactive)
O=C(O)c1cc(O)c2c(c1)[C@@H]([C@@H]1c3cc(C(=O)O)cc(O)c3C(=O)c3c(O[C@H]4O[C@H](CO)[C@@H](O)[C@H](O)[C@H]4O)cccc31)c1cccc(O[C@H]3O[C@H](CO)[C@@H](O)[C@H](O)[C@H]3O)c1C2=O | 0.83 (inactive)
Nc1ccn(C2O[C@H](CO)[C@@H](O)[C@@H]2O)c(=O)n1 (stereo partly specified) | 1.61 (inactive)
CC1(C)C[C@@H]2C(=O)CC[C@@H]3O[C@]3(C)CC[C@H]21 | 0.92 (inactive)
O=C1CC[C@]23/C=C/C(=O)NCCCCNCCCNC(=O)/C=C/c4ccc(c2c4)O[C@@H]3C1 | 0.81 (inactive)
